measured-endpoint: melting point

Exercise: Give its melting point value. Item: `Cc1ccc(CCCO)c(NCc2ccc3nc(NCCCN4CCOCC4)n(Cc4nc(C)c(C)nc4C)c3c2)c1`
Solution: 120 °C

Exercise: Same lookup for `FC(F)(F)Sc1cc[nH]c1-c1ccc(Cl)cc1` , please.
Solution: 59 to 64 °C

Exercise: Next: `CC1=CC(O)(c2nc3ccccc3s2)C=C(C)C1=O`
Solution: 132 °C

Exercise: For `CS(=O)(=O)c1ccc(/C=C/c2cc(/C=C/c3ccc4cc[nH]c4c3)n[nH]2)cc1` then?
Solution: 260 to 268 °C

Exercise: How about this molecule: `COC(=O)c1c(C(=O)OC)c(-c2ccc(F)c(F)c2)n2c1Cc1ccccc1C2`
Solution: 142 to 144 °C

Exercise: Note, next up: `CC1(C)CCC(=O)Nc2ccc(Nc3ncc(Cl)c(Nc4ccccc4-c4nccs4)n3)cc21`
Solution: 224 °C

Exercise: Thanks! And `CCOCc1nc2c(N)nc3cccnc3c2n1CC1(O)CCCCC1` ?
Solution: 171 to 173 °C

Exercise: Please answer likewise for CCOP(=O)(CCN1CC(O)CNc2c1c(=O)c2=O)OCC (centres undefined)
Solution: 169 to 171 °C

Exercise: Now this one: COC(=O)C1=C(C)NC(C)=C(C(=O)OCCN2CCCN(C(c3ccccc3)c3ccccc3)CC2)C1c1cccc([N+](=O)[O-])c1 (centres undefined)
Solution: 60 to 63 °C

----------
measured-endpoint: melting point

Exercise: Which melting point value is on record for Cc1nc(-c2cccc(CN3C(=O)C4(COc5cc6c(cc54)OCCO6)c4ccccc43)c2)no1 (centres undefined) ?
Solution: 90 to 95 °C

Exercise: And C=CC1OC(OC)C(OCc2ccccc2)C(OCc2ccccc2)C1OCc1ccccc1 (centres undefined) ?
Solution: 46 to 47 °C

Exercise: Try this compound too: `CN(Cc1nc(-c2cc(C(C)(C)C)c(O)c(C(C)(C)C)c2)cs1)c1ccc([N+](=O)[O-])cc1`
Solution: 199 to 201 °C

Exercise: How about `COc1ccc(-c2nc(N)n3nc(-c4ccco4)nc3n2)cc1OC` ?
Solution: 205 to 208 °C

----------
Kindly state melting point for each of the entries shown.

Exercise: Entry `O=C(Nc1ccc(N2CCCC2=O)cc1)OCc1ccccc1` : reported melting point = ?
Solution: 174 °C

Exercise: Input `Clc1ccc2[nH]c(=Nc3ccccc3)n3nc(-c4ccco4)nc3c2c1`
Solution: 231 to 233 °C

Exercise: Now try `CC(=O)c1ccc(-c2nc(O)c(C)s2)cc1` .
Solution: 219 to 220 °C

Exercise: Could you do the same for `CC(=O)N(C)[C@H]1CCN(C(=O)c2ccc(-c3[nH]nc4c3C(=O)c3c(NC(=O)NN5CCOCC5)cccc3-4)s2)C1` , please?
Solution: > 300 °C

Exercise: Subsequent entry: O=C(O)C1=C(c2ccccc2)c2cc(Cl)ccc2OC1CC(F)(F)F (stereo not given)
Solution: 226 to 227 °C

----------
measured-endpoint: melting point

Exercise: Quick one: melting point of `CCOC(=O)/C=C/c1cnn(C)c1` ?
Solution: 43 to 44 °C

Exercise: What about this compound? `CC(=O)Oc1ccc(P(c2ccccc2)c2ccc(OC(C)=O)cc2)cc1`
Solution: 118 to 120 °C

Exercise: Let us now turn to CN(C(=O)Nc1ccccc1F)C(Cl)C(Cl)(Cl)Cl (stereo not given)
Solution: 130 to 141 °C

Exercise: What do you get for `Cc1cc(=O)n(CCCN2CCC(c3c[nH]c4ccccc34)CC2)c2ccccc12` ?
Solution: 74 to 77 °C

Exercise: // query: `COc1cc(N)ccc1C(=O)NC1(C)CCN(CCCOc2ccc(F)cc2)CC1`
Solution: 75.5 °C

Exercise: Request: CCOC(=O)C(C)c1ccc(-c2ccc(F)cc2F)c(O)c1 (stereo not given)
Solution: 72 to 73 °C

Exercise: Would you kindly repeat that for `COc1c(F)cccc1OCCN1C(=O)c2ccccc2C1=O` ?
Solution: 112 to 113 °C

Exercise: Try `COc1ccc(S(=O)(=O)C2(C(=O)NO)CCN(Cc3ccc(Cl)c(Cl)c3)CC2)cc1` next.
Solution: 192 to 195 °C

Exercise: `CCc1nc(Cl)cc(NC)n1` ?
Solution: 80 to 81 °C

Exercise: Next: `O=c1[nH]c2ccc(Cl)cc2c(-c2ccccc2)[n+]1[O-]`
Solution: 267 to 269 °C

# credit: a melting point compilation (Tetko et al.; mined from patent text by program, amines drawn as free bases though some values may be those of a salt)
